Test system: Escherichia coli
procedureDetails: Inhibition of Escherichia coli MurD ligase assessed as residual activity at 1 mM after 30 mins
metric: Activity (%)
Answers are plain numbers, in %.

Past entries and their recorded results:
{"columns": ["molecule", "unitOfMeasure", "val"],
 "data": [
  ["N#Cc1ccc(COc2ccc3cc(S(=O)(=O)Nc4ccc(C(=O)O)cc4C(=O)O)ccc3c2)c(F)c1", "%", 0.79],
  ["N#Cc1ccc(COc2ccc3cc(S(=O)(=O)Nc4cc(C(=O)O)ccc4C(=O)O)ccc3c2)c(F)c1", "%", 2],
  ["N#Cc1ccc(COc2ccc3cc(S(=O)(=O)NC4CCC(C(=O)O)CC4C(=O)O)ccc3c2)c(F)c1 (racemic)", "%", 14]
]}

--- query ---
Per the record, CCCCOc1ccc2cc(S(=O)(=O)Nc3ccc(C(=O)O)cc3C(=O)O)ccc2c1 has Activity of 8

// data source = ChEMBL document CHEMBL1811859
